system under test: IGF1R (human, UniProt P08069)
assay notes: ELISA
measured property: EC50 (nM)

{"columns": ["binder", "measured property", "recorded number"],
 "data": [
  ["DVD021 IGF1R arm (antibody, V domains shown, DVD-Ig inner) VH: EVQLLESGGGLVQPGGSLRLSCTASGFTFSSYAMNWVRQAPGKGLEWVSAISGSGGTTFYADSVKGRFTISRDNSRTTLYLQMNSLRAEDTAVYYCAKDLGWSDSYYYYYGMDVWGQGTTVTVSS VL: DIQMTQFPSSLSASVGDRVTITCRASQGIRNDLGWYQQKPGKAPKRLIYAASRLHRGVPSRFSGSGSGTEFTLTISSLQPEDFATYYCLQHNSYPCSFGQGTKLEIKR", "EC50", 135]
]}
